# System: CYPSE (Flatsedge)
# Measurement Description: Postemergence weed control under flooded paddy conditions
# Assay type: in vivo, Cyperus serotinus
# Experimental Conditions: Rate 0.1250 kg/ha, postemergence weeds, rated 3 to 4 weeks after treatment
The compounds listed here are annotated with their Herbicidal rating CYPSE.

Compound | Herbicidal rating CYPSE
C=CCN1C(=O)C(CC(=O)OC(C)C(=O)OCC)SC1=Nc1cc(-n2c(=O)ccn(C)c2=O)c(F)cc1Cl (centres unmarked) [Compound 94] | 6.0
C=CCN1C(=O)C(CC(=O)O)SC1=Nc1cc(-n2c(=O)cc(C(F)(F)F)n(C)c2=O)c(F)cc1Cl (centres unmarked) [Compound 62] | 0.0
CCOC(=O)CN1C(=O)C(CC(=O)NS(=O)(=O)CC)SC1=Nc1cc(-n2c(=O)cc(C(F)(F)F)n(C)c2=O)c(F)cc1Cl (centres unmarked) [Compound 103] | 6.0
C=CCN1C(=O)C(CC(=O)NOC)SC1=Nc1cc(-n2c(=O)cc(C(F)(F)F)n(C)c2=O)c(F)cc1Cl (centres unmarked) [Compound 85] | 2.0
C=CCN1C(=O)C(CC(=O)OC(C)C)SC1=Nc1cc(-n2c(=O)cc(C(F)(F)F)n(C)c2=O)c(F)cc1Cl (centres unmarked) [Compound 66] | 4.0
COC(=O)C1(N2C(=O)CSC2=Nc2cc(-n3c(=O)cc(C(F)(F)F)n(C)c3=O)c(F)cc2Cl)CCCCC1 [Compound 81] | 0.0
CCS(=O)(=O)NC(=O)CC1SC(=Nc2cc(-n3c(=O)cc(C(F)(F)F)n(C)c3=O)c(F)cc2Cl)N(C)C1=O (centres unmarked) [Compound 105] | 7.0
CCOC(=O)CN1C(=O)C(Cc2ccccc2OC(C)C(=O)O)S/C1=N/c1cc(-n2c(=O)cc(C(F)(F)F)n(C)c2=O)c(F)cc1Cl (centres unmarked) [Compound 114] | 0.0

---

The molecules listed here are annotated with their Herbicidal rating CYPSE.
# System: CYPSE (Flatsedge)
# Measurement Description: Postemergence weed control under flooded paddy conditions
# Type: in vivo, Cyperus serotinus
# Experimental Conditions: Rate 0.2500 kg/ha, postemergence weeds, rated 3 to 4 weeks after treatment
# Excerpt: Results of herbicide evaluation are expressed on a rating scale (0-9). The scale is based upon a visual observation of plant stand, vigor, malformation, size, chlorosis and overall plant appearance as compared with a control. Plastic containers containing weeds which are 3 to 5 cm tall and rice seedlings at the 1.5 to 2.5 leaf stage are flooded with water. […] The compounds evaluated are reported by compound number given in Example 37.

Molecule | Herbicidal rating CYPSE
CN1C(=O)C(CC(=O)NS(C)(=O)=O)SC1=Nc1cc(-n2c(=O)cc(C(F)(F)F)n(C)c2=O)c(F)cc1Cl (stereo not drawn) | 3.0
C=CCN1C(=O)C(CC(N)=O)SC1=Nc1cc(-n2c(=O)cc(C(F)(F)F)n(C)c2=O)c(F)cc1Cl (stereo not drawn) | 0.0
Cn1c(C(F)(F)F)cc(=O)n(-c2cc(N=C3SCC(=O)N3C3CCOC3=O)c(Cl)cc2F)c1=O (stereo not drawn) | 4.0
C=CCN1C(=O)C(CC(=O)OC(C)C)SC1=Nc1cc(-n2c(=O)cc(C(F)(F)F)n(C)c2=O)c(F)cc1Cl (stereo not drawn) | 4.0
CCOC(=O)CN1C(=O)C(CC(=O)OC(C)C)SC1=Nc1cc(-n2c(=O)cc(C(F)(F)F)n(C)c2=O)c(F)cc1Cl (stereo not drawn) | 4.0
CCOC(=O)CN1C(=O)C(Cc2ccccc2OC(C)C(=O)O)S/C1=N/c1cc(-n2c(=O)cc(C(F)(F)F)n(C)c2=O)c(F)cc1Cl (stereo not drawn) | 0.0
